- Tested on: NCI-H441 non-small cell lung cancer cells
- assay_procedure: 72 h MTT proliferation assay, equipotent fixed-ratio combination, isobologram analysis (Calcusyn)
- Format: cell-based, human
- assay_context: NCI-H441; 72 h; single agents and fixed-ratio combination; read-out: IC50
quantity_name: IC50 (µM)
One number for each entry, in µM.

-- ask Tell me measured IC50 for "C#Cc1cccc(Nc2ncnc3cc(OCCOC)c(OCCOC)cc23)c1" please.
-- reply 3.16

----------
quantity_name: melting point

The examples below pair each entry with its known result.
-- ask Tell me measured melting point for O=C1NC(=O)[C@@H](c2cn3c4c(cccc24)CCC3)[C@@H]1c1ccc(O)cc1 (racemic) please.
-- reply 105 to 107 °C

-- ask Tell me measured melting point for O=C1NC(=O)[C@@H](c2cn3c4c(cccc24)CCC3)[C@@H]1c1ccc(F)cc1 (racemic) please.
-- reply 208 to 210 °C

-- ask Tell me measured melting point for COc1cccc([C@@H]2C(=O)NC(=O)[C@H]2c2cn3c4c(cccc24)CCC3)c1 (racemic) please.
-- reply 87 to 91 °C

-- ask Tell me measured melting point for "O=C1NC(=O)C(c2cn3c4c(cccc24)CCC3)=C1c1ccc(OCc2ccccc2)cc1" please.
-- reply 262 to 265 °C

-- ask Tell me measured melting point for O=C1NC(=O)[C@@H](c2cn3c4c(cccc24)CCC3)[C@@H]1c1cccc(O)c1 (racemic) please.
-- reply 108 to 110 °C

Continuing:
-- ask Tell me measured melting point for "O=C1NC(=O)C(c2cn3c4c(cccc24)CCC3)=C1c1ccc(F)cc1" please.
-- reply 234 to 235 °C

----------
- Tested on: HT29 colon cancer cells
- assay_procedure: 72 h MTT proliferation assay, equipotent fixed-ratio combination, isobologram analysis (Calcusyn)
- Type: cell-based
- assay_context: Homo sapiens, HT-29, 72 h, HT29; 72 h; single agents and fixed-ratio combination; read-out: IC50
quantity_name: IC50 (nM)
Give bare numbers, in nM.

-- ask Tell me measured IC50 for O=C1NC(=O)[C@@H](c2cn3c4c(cccc24)CCC3)[C@@H]1c1c[nH]c2ccccc12 (single isomer, unassigned) please.
-- reply 179
